# Method summary: In vitro intrinsic clearance after incubation with human liver microsomes (HLM)
# Format: ADME, Microsome
Below, each entry is listed with its recorded CLint scaled.
Measure name: CLint scaled (mL/min/kg)

> print(dat)
                                        smi  recorded.measurement
1  COc1cccc(-c2c(C)n(Cc3c(F)cccc3F)c(=O)n(C[C@@H](C)N(C)Cc3ccccn3)c2=O)c1                  1700
2  Cc1ccc(-c2nc(-c3c(C)n(Cc4c(F)cccc4F)c(=O)n(C[C@H](N)c4ccccc4)c3=O)cs2)cc1                    36
3  Cc1c(-c2csc(-c3ccc(Cl)cc3)n2)c(=O)n(C[C@H](N)c2ccccc2)c(=O)n1Cc1c(F)cccc1F                    46

---

Let's look at some molecules and their measured Ki.
Target protein (sequence): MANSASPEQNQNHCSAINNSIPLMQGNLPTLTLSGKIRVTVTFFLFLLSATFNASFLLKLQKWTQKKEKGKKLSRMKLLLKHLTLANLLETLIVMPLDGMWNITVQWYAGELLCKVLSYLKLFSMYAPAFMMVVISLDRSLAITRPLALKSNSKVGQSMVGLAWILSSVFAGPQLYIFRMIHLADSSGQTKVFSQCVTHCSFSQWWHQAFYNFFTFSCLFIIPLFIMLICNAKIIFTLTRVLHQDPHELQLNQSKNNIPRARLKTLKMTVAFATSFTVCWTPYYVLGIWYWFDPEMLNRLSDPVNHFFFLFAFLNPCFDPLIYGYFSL
Measure name: Ki (nM)

> print(dat)
                                        smi  recorded.measurement
1  Cc1c(-c2csc(Nc3ccccc3)n2)c(=O)n(C[C@H](N)c2ccccc2)c(=O)n1Cc1c(F)cccc1F                    70
2  Cc1ccc(Nc2nc(-c3c(C)n(Cc4c(F)cccc4F)c(=O)n(C[C@H](N)c4ccccc4)c3=O)cs2)c(C)c1                   130
3  Cc1c(-c2csc(-c3cccc(C(F)(F)F)c3)n2)c(=O)n(C[C@H](N)c2ccccc2)c(=O)n1Cc1c(F)cccc1F                   150
